B1: ANKRD17 (parent)
chain: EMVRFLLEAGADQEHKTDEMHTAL

- Variants of: B1
- protocol-summary: protein stability index of a GFP-peptide fusion (GPS, HEK-293T) (PSI 1-6); higher = more stable;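 further: lentivirally expressed fusions sorted by FACS into six bins by GFP to DsRed ratio, PSI derived from sequencing read proportions per bin multiplied by bin number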
- run-parameters: c terminus: a fixed tail appended
Would you mind labelling by protein stability index? At or over 3 is YES, under is NO.

> print(dat)
                             chain  class.name
1   EMVGFLLEAGADQEHKTDEMHTAL [R4G]         YES
2  EMVRFLLEAGADQEHKIDEMHTAL [T17I]          NO
3   EMVRVLLEAGADQEHKTDEMHTAL [F5V]         YES
4   PMVRFLLEAGADQEHKTDEMHTAL [E1P]         YES
5  EMVRFLLEAGADQEHKTDEFHTAL [M20F]          NO

Textbook exercise: given the entry EMVRFLLEASADQEHKTDEMHTAL [G10S] , state whether its protein stability index is greater than or equal to 3.
NO

Item EMVRFLLEAGADNEHKTDEMHTAL [Q13N] with protein stability index of 3 or above?
NO

Threshold query (protein stability index >= 3) on EMVRFTLEAGADQEHKTDEMHTAL [L6T]
YES

Check the entry NMVRFLLEAGADQEHKTDEMHTAL [E1N] : does protein stability index equal or exceed 3?
YES

Tell me whether protein stability index is at least 3 here: EMVYFLLEAGADQEHKTDEMHTAL [R4Y]
NO

Does the reported protein stability index for EMVRFLLEAGADQEHDTDEMHTAL [K16D] fall at or above the 3 mark?
YES
